assay: NCI Yeast Anticancer Drug Screen. Data for the sgs1 mgt1 strain (AID 161);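 further: 0% = growth of cultures given vehicle only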; conditions: S. cerevisiae sgs1 mgt1 strain, at 50.0 µM, stronger effect = higher value
About 79,000 compounds went through this panel and 15% of them were active in at least one assay; those are over-represented in the sample as a whole. *1 amine or outer side, *2 acyl side, *3 side chain or, on linkers, in order; H or OH if unused. Where a SMILES comes first, the peptide text is derived from it. Bridges are numbered along the chain shown (N, C = ends). [ ]: non-standard residue; d: D form. The star is where a group is joined. ξ: configuration not given here. Fmoc = O=C(OCC1c2ccccc2-c2ccccc21)*; NMeY = CN[C@@H](Cc1ccc(O)cc1)C(=O)O; X9 = O=C(C(CCCCNO[*:3])N[*:1])[*:2]; ξW = NC(Cc1c[nH]c2ccccc12)C(=O)O; Cbz = O=C(OCc1ccccc1)*; ξP = O=C(O)C1CCCN1; ξA = CC(N)C(=O)O
metric-name: growth inhibition (%)

CC(CCOCC1CO1)OCC1CO1 (configuration not stated)	3.85
CCCCCCCCCCCCCC(=O)Cl	-47.2
O=C(NNC(=S)Nc1ccc(Cl)cc1)C12CC3CC(CC(C3)C1)C2	-4.15
NC(=O)CNC(=O)C1CCCN1C(=O)C1CCCCNOC(=O)CC[C@@H](NC(=O)OCC2c3ccccc3-c3ccccc32)C(=O)NC(Cc2c[nH]c3ccccc23)C(=O)N1 (some centres not stated) (Fmoc-[dE][ξW][X9][ξP]G-NH2; ester 1-3)	-6.55
CC1=CC(=O)CCC1c1ccccc1 (configuration not stated)	-19.8
CC[N+]1(C)CCC(O)(c2ccccc2)C(C(=O)c2ccccc2)C1 (configuration not stated)	-5.55
O=C(O)C(C(C(=O)O)P(=O)(O)O)P(=O)(O)O (configuration not stated)	-50.6
CCCOC(=O)CC(CC(=O)OCCC)C(=O)OCCC	-3.75
CCOC(=O)CCCCCSc1n[nH]c(=O)[nH]c1=O	-21.9
CCOC(=O)CC1(O)Oc2cc3c(cc2C(c2cc(OC)c(OC)c(OC)c2)C1C(=O)OCC)OCO3 (configuration not stated)	-21.6
COc1cc(OC)c(NC(N)=O)cc1Cl	3.55
O=C(/C=C/c1ccc(F)c(F)c1)OCCc1ccccc1	32.7
COc1ccccc1/C=C/C(=O)c1sc(-c2cccnc2)nc1C	5.3
COc1cccc(-c2nnc(-c3cccc(OC)c3)o2)c1	16.6
NC(N)=N/N=C/c1c(Cl)nc2sccn12	-17.5
COc1ccc(C[C@@H](C(=O)N[C@@H](C)C(N)=O)N(C)C(=O)[C@@H]2CCCN2C(=O)[C@H](CC(C)C)NC(=O)C(C)NC(=O)OCc2ccccc2)cc1 (some centres not stated) (Cbz-[ξA]LP[NMeY](Me)A-NH2)	-7.95
COc1cc(CN2CCN(CCO)CC2)c(O)c(CN2CCN(CCO)CC2)c1	-23.4
O=C(O)C1(CC(CCCN2CCCCC2)c2ccccc2)CCCC1 (configuration not stated)	-4.1
CN(C)Cc1cc(N=Nc2ccc(Cl)cc2)ccc1O	19.4
CC(=O)c1cccc(NC(=O)c2cccc(Cl)c2)c1	24.5
CCOC(=O)C(C)(C)c1cn(C)c2ccccc12	-2.7
Cc1cc(C)c(NC(=O)Nc2cccc(F)c2)c(C)c1	13.2

====

experiment: NCI Yeast Anticancer Drug Screen. Data for the mlh1 rad18 strain (AID 175); settings: S. cerevisiae mlh1 rad18 strain growth inhibition; at 50.0 µM; stronger effect = higher value
Compounds without any hit were thinned out: in the full panel of roughly 79,000, 15% have a hit.
metric-name: growth inhibition (%)

CCOC(=O)c1ccc(NC(=O)Nc2cc(C(F)(F)F)ccc2Cl)cc1	94
CC(=O)NC(C)NC(C)=O	-5.35
O=C(N/C=C\NC(=O)Nc1cccc(Cl)c1)Nc1cccc(Cl)c1	18.8
COc1ccc(-c2cc(-c3ccc(C)cc3)n(C3OC(COC(C)=O)C(OC(C)=O)C(OC(C)=O)C3OC(C)=O)c(=S)c2C#N)cc1 (stereo not given)	4.4
CC1CCOCCCOC(=O)CCOCCC(=O)OCCCOCCCOC(=O)CCOCCC(=O)O1 (stereo not given)	-4.45

====

experiment: NCI Yeast Anticancer Drug Screen. Data for the bub3 strain (AID 167); settings: S. cerevisiae bub3 mutant strain, at 50.0 µM
This is part of a sample that, as a whole, favours compounds with a hit. Of some 79,000 tested, about 15% had one in any assay. Calls of active or inactive are those of the source. No stated cut-off is given here; in the data, active means growth inhibition above about 70%; inactive means the rest.
Outcomes: 1 for active, -1 for inactive

CC(=O)c1c(C)cc2cccc(OC3OC(CO)C(O)C(O)C3O)c2c1O (centres undefined) (tested in a mixture with another compound)	-1
COCCC(N)C(=O)O (centres undefined)	-1
COc1cc(C=Nc2ccccc2)ccc1OC(=O)c1ccccc1	-1
S=C1NC(c2ccccc2)Nc2ccccc21 (centres undefined)	-1
Cc1cc(=O)oc2c(C)c3oc4c(c3cc12)CN(C)CC4	-1
CCOc1ccccc1N1C(=O)CSC1=S	-1
C=CCNC(=O)c1ccc[n+](CC(=O)Nc2ccccc2)c1	-1
CCN(CC)CCCC(C)Nc1cc(C)nc(Nc2nc3cc(Cl)c(Cl)cc3[nH]2)n1 (centres undefined)	1
O=C(CCCc1ccc([N+](=O)[O-])cc1)c1ccccc1	-1
CCc1ccccc1NC(=O)C(=O)C(C(=O)c1ccc(OC)cc1)c1ccc(OC)cc1 (centres undefined)	-1
O=P(OCCCl)(OCCCl)C(c1ccccc1)(c1ccccc1)c1ccccc1	-1
CC(=O)c1cccc(NC(=O)Oc2ccc(F)cc2Cl)c1	-1
Cc1cccc(NC(=O)COc2ccc(Cl)cc2C)c1	-1
C=C(C)C(=O)OCCCCC	-1
CCCCCCCCCCCCCCCC(=O)N=C(C(N)=O)C(N)=O	-1
CCOC(=O)[C@H]1Nc2ccc(Cl)cc2[C@H]2OCC[C@@H]12	-1
O=C1c2cc(Cl)ccc2NC(O)c2cccn21 (centres undefined)	-1
CCOC(=O)CNC(=O)C(Cc1cnc[nH]1)NC(=O)CNC(=O)OCc1ccccc1 (centres undefined)	-1
Cc1cc2nc3n(c2cc1C)C(=O)c1cc2ccccc2cc1-3	-1
CCCCCCCC/C=C/CCCCCCCC(=O)OCC(C)(C)N1C(=O)CCC1=O	-1
N#CCOS(=O)(=O)O	-1
Cc1ccc(S(=O)(=O)N(Cc2cccc([N+](=O)[O-])c2)c2ccc(C(=O)O)cc2)cc1	-1
CC(O)(C(=O)O)c1ccccc1O (centres undefined)	-1
CN1C(=O)Cc2ccccc21	-1

====

Assay: NCI Yeast Anticancer Drug Screen. Data for the cln2 rad14 strain (AID 165);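 further: 0% = growth equal to vehicle treated cultures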
Conditions: S. cerevisiae cln2 rad14 strain, at 50.0 µM, stronger effect = higher value
Experimental: Growth inhibition of yeast strains with defined genetic alterations is measured as a screen for potential anti-cancer activity. Selected strains with alterations in DNA damage repair or cell cycle control were exposed to compounds and growth inhibition was measured relative to vehicle treated controls. The strain used in this assay is cln2 rad14
This is part of a sample that, as a whole, favours compounds with a hit. Of some 79,000 tested, about 15% had one in any assay. The source made the active and inactive calls. No stated cut-off is given here; in the data, active means growth inhibition above about 70%; inactive means the rest.
Each entry below lists one item and its recorded growth inhibition value.
metric-name: growth inhibition

COc1cc(C(O)C(=O)c2cnc3cc([N+](=O)[O-])ccc3n2)ccc1O (stereo unspecified)	2.15% (inactive)
CC(O)c1ccccc1Br (stereo unspecified)	-13.4% (inactive)
COc1ccc(C(C)=O)c(C)c1OC	10.4% (inactive)
O=C(O)CC1=C(c2ccccc2)C(O)(c2ccccc2)CC1=O (stereo unspecified)	-27.9% (inactive)
CC(C)[O-].CC(C)[O-].O=c1cccccc1[O-].O=c1cccccc1[O-].[Ti+4]	10.8% (inactive)
Cc1c([N+](=O)[O-])cc(C(C)(C)C)c(OC(=O)Nc2ccc(Cl)cc2)c1[N+](=O)[O-]	52.2% (inactive)
CCSc1nc(Cl)nc2c1cnn2C	4.1% (inactive)
Cc1ccc2c(c1)C(O)(CC(=O)c1ccccc1)C(=O)N2 (stereo unspecified)	-47.9% (inactive)
COc1ccc(C2=CN(S(=O)(=O)c3ccc(C)cc3)CCc3ccccc32)cc1	-59.8% (inactive)
Cc1ccc2c(=O)[nH]cnc2c1	-7.6% (inactive)
CCOC(=O)C1=C(SC)SC(C(=O)OCC)C2C=C(C)C=CN12 (stereo unspecified)	5.05% (inactive)

====

assay: NCI Yeast Anticancer Drug Screen. Data for the cln2 rad14 strain (AID 165);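 further: 0% = growth equal to vehicle treated cultures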; conditions: S. cerevisiae cln2 rad14 strain, at 50.0 µM, stronger effect = higher value
This is part of a sample that, as a whole, favours compounds with a hit. Of some 79,000 tested, about 15% had one in any assay.
metric-name: growth inhibition (%)

O.O.O=c1cc(Cl)[nH]c(=O)[nH]1.[NH2-].[NH2-].[Pt+4]	-47.6
Cc1cc(O)c(C(c2ccccn2)c2c(O)cc(C)[nH]c2=O)c(=O)[nH]1	-2.55
FC(F)(F)C1(C(F)(F)F)OS2(OC(C(F)(F)F)(C(F)(F)F)c3ccccc32)c2ccccc21	-22.9
O=[N+]([O-])c1cccc(NC(c2ccccc2)S(=O)(=O)O)c1 (stereo not given)	18.9
COc1ccc(OC)c(COC(=O)c2ccccc2)c1COC(=O)c1ccccc1	4.2
O=C(OCCN1C(=O)c2cccc3c(Br)ccc(c23)C1=O)OCc1ccccc1	49.4
OC(c1cc(-c2ccccc2)nc2c1ccc1ccccc12)C1CCCCN1 (stereo not given)	14
CCOC1(OCC)C(=O)N(c2ccc(Cl)c(Cl)c2)C(=O)N1c1ccc(Cl)c(Cl)c1	7.5
COC(=O)C1CCC(=O)N1CN(C(C)=O)c1cc(OC)ccc1OC (stereo not given)	6.45
C[C@@]12C[C@@H](c3ccccc3O1)N1CCCSC1=N2	32.8
